Reference source for all entries: ChEMBL document CHEMBL5344458

procedure.text: Half life in Sprague-Dawley rat at 1 mg/kg,iv administration by LC-MS/MS analysis
Assay type: ADME, organism-based
particulars: in vivo
recorded.metric: half-life (min)

[[record]]
molecule = "CCNC(=O)c1cc(OC(C)c2ccc(Cl)cc2)c(C(=O)NC)[nH]1 (stereo not drawn)"
recorded_metric = "half-life"
units_of_measure = "min"
readout_value = 66

[[record]]
molecule = "CNC(=O)c1[nH]c(C(=O)NC2CCC2)cc1OC(C)c1ccccc1 (stereo not drawn)"
recorded_metric = "half-life"
units_of_measure = "min"
readout_value = 54

[[record]]
molecule = "CNC(=O)c1[nH]c(C(=O)N[C@H]2CC[C@H](O)CC2)cc1OC(C)c1ccc(Cl)cc1F (stereo partly drawn)"
recorded_metric = "half-life"
units_of_measure = "min"
readout_value = 84

[[record]]
molecule = "CCNC(=O)c1cc(OC(C)c2ccccc2F)c(C(=O)NC)[nH]1 (stereo not drawn)"
recorded_metric = "half-life"
units_of_measure = "min"
readout_value = 24

[[record]]
molecule = "CCNC(=O)c1cc(OC(C)c2ccc(Cl)cc2F)c(C(=O)NC)[nH]1 (stereo not drawn)"
recorded_metric = "half-life"
units_of_measure = "min"
readout_value = 18

[[record]]
molecule = "CNC(=O)c1[nH]c(C(=O)NC2CCC2)cc1OC(C)c1ccc(Cl)cc1 (stereo not drawn)"
recorded_metric = "half-life"
units_of_measure = "min"
readout_value = 24

[[record]]
molecule = "CNC(=O)c1[nH]c(C(=O)NC2COC2)cc1OC(C)c1ccc(Cl)cc1 (stereo not drawn)"
recorded_metric = "half-life"
units_of_measure = "min"
readout_value = 36

[[record]]
molecule = "CNC(=O)c1[nH]c(C(=O)NC2CCC2)cc1OC(C)c1ccccc1F (stereo not drawn)"
recorded_metric = "half-life"
units_of_measure = "min"
readout_value = 30

